test system: RXF 393 renal; test: NCI tumour cell line growth inhibition, 48 h
quantity.measured: TGI

| compound | quantity.measured | result |
| --- | --- | --- |
| O=C(CSC(c1ccccc1)c1ccccc1)N/N=C/c1cccc(Cl)c1 | TGI | 29.5 µM |

# get_value(readout='TGI', item= C=C1CCCCCCCCCCC12SCCC2CCCCSC (configuration not stated) )
50.4 µM

Can you look up the measured TGI of `N=c1nc2n(cc1F)[C@@H]1O[C@H](CO)[C@@H](O)[C@@H]1O2` for me?
> 56.2 µM

TGI lookup needed for `COc1cc(N/N=C/C#N)cc(OC)c1OC` , thanks.
> 10 µM

Report TGI for `O=C(c1cc2ccccc2o1)N(Cc1ccccc1)c1ccccc1` please.
43 µM

Query (compound): O=C(O)NCc1ccccc1 (tested in a mixture with another compound) ; field requested: TGI
> 75.5 µM

Given the compound `O=c1oc2nc(-c3ccccc3)cc(C(F)(F)F)c2n1Cc1ccccc1` , what is its reported TGI?
> 30.3 µM

Return reported TGI; argument: `CCC(=O)N1NC(=O)C(CC)(CC)C1=O`
> 100 µM

TGI for `O=[N+]([O-])c1ccc2c(c1)Nc1c3ccccc3nc3cccc-2c13` ?
32.9 µM

Value lookup for TGI; key = `O=C(NNc1ccnc2cc(Cl)ccc12)/C(=C\c1ccccc1Cl)NC(=O)c1ccccc1`
> 100 µM

For `COc1c(NC(C)=O)cc(C)cc1NC(C)=O` , what is its reported TGI?
> 100 µM
